experimental system: RAC-alpha serine/threonine-protein kinase (Homo sapiens)
method notes: Inhibition of AKT1
reported metric: IC50 (µM)
The answer is to be given in µM; state only the numeric part.

Exam item: Provide one value: measured IC50 of `COc1ccccc1N1CCN(c2ncnc3[nH]nc(Br)c23)CC1`
Marked response: 22

###

experimental system: RAC-alpha serine/threonine-protein kinase (Homo sapiens, UniProt P31749, M227G)
Sequence (P31749 whole entry M227G): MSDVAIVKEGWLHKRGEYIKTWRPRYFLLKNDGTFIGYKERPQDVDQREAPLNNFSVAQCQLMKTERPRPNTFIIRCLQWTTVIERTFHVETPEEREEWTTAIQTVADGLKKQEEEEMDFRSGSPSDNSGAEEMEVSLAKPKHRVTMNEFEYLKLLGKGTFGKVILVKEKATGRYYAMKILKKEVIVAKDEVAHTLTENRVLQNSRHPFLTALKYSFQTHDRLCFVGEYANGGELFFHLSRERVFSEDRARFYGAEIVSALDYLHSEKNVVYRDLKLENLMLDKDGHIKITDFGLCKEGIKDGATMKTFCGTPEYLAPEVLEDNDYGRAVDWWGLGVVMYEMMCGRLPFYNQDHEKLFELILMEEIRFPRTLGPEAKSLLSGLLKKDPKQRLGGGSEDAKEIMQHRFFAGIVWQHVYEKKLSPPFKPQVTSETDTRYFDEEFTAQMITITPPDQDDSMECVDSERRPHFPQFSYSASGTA
method notes: Inhibition of myristoylated AKT1 M227G mutant expressed in HEK293T cells by in vitro immunoprecipitation kinase assay
Assay type: cell-based, HEK-293T
reported metric: IC50 (nM)
The answer is to be given in nM; state only the numeric part.

Exam item: Provide one value: measured IC50 of `CC(C)(C)n1nc(Cc2cccc(I)c2)c2c(N)ncnc21`
Marked response: 28

###

experimental system: RAC-alpha serine/threonine-protein kinase (Homo sapiens)
method notes: Inhibition of myristoylated wild type AKT1 expressed in HEK293T cells by in vitro immunoprecipitation kinase assay
Type: cell-based, HEK-293T
pIC50: −log10 of the molar value.
reported metric: pIC50

Exam item: Provide one value: measured pIC50 of `CC(C)(C)n1nc(Cc2cccc(I)c2)c2c(N)ncnc21`
Marked response: < 5.00
